Measured Inhibition, listed per entry.
- Tested on: Plasmodium falciparum
- PROTOCOL TEXT: GSK_TCMDC: Inhibition of Plasmodium falciparum Dd2 in whole red blood cells, using parasite LDH activity as an index of growth. Test compounds present at 2uM
- Type: functional
Please give a number only; it is taken to be in %.

Recorded Inhibition, per entry:
{"columns": ["COMPOUND", "Inhibition, %"],
 "data": [
  ["O=C(NCCc1ccccc1F)c1ccc(N2CCN(c3ccncc3)CC2)cn1.O=C(O)C(F)(F)F", 18],
  ["CCNc1cc(C(=O)N[C@@H](Cc2ccccc2)[C@H](O)CNC23CCC(CC2)CC3)cc(N2CCCCS2(=O)=O)c1.Cl", 98],
  ["CC(C)c1ccc(CN(C)CCCCNC(=O)c2ccc(NC(=O)c3ccc(Cl)cc3)cc2)cc1", 0],
  ["Cc1cccc2nc(-c3ccc(-c4cccc(CN5CCCCC5)c4)s3)[nH]c12.O=C(O)C(F)(F)F", 92]
]}

Then there is this compound:
Task: Tell me the measured Inhibition of `CN(C)CCCSc1ccccc1NC(=O)C=Cc1ccccc1` , please.
Output: 0

---

Attribute: Inhibition
- System: HepG2
- PROTOCOL TEXT: GSK_TCMDC: Percent inhibition of human HepG2 cell line. Test compounds present at 10uM.
- Assay type: functional
Give the quantity in %, number only.

Task: For `CN(C)CCOc1cccc(NC(=O)Nc2ccc(-c3ccccc3)cc2)c1.O=C(O)C(F)(F)F` , what is its reported Inhibition?
Output: 11

Task: Another compound to check: `CN1CCN(S(=O)(=O)c2ccc3nccc(Nc4ccc(Oc5ccccc5)cc4)c3c2)CC1.Cl`
Output: 0

Task: Try this compound too: `Cc1[nH]c2c(C)cccc2c1C1CCN(CCC2CCN(C(=O)/C=C/c3ccc(Cl)c(Cl)c3)CC2)CC1`
Output: 67

Task: // next record `Cc1cccc2nc(-c3ccc(-c4cccc(CNCCN5CCNCC5)c4)cc3)[nH]c12.O=C(O)C(F)(F)F`
Output: 9

---

- Test system: HepG2
- PROTOCOL TEXT: GSK_TCMDC: Percent inhibition of human HepG2 cell line. Test compounds present at 10uM.
- Format: functional
With a cut-off of 20%, any Inhibition strictly below it is called True; any Inhibition meeting it or above is called False.

Task: Determine whether this compound shows Inhibition lower than 20% (ties excluded): COc1ccc2c(c1)CC(C)(C)NC2CCCCCCCCC1NC(C)(C)Cc2cc(OC)ccc21.O=C(O)C(=O)O (stereo not drawn)
Output: False

Task: Then what about the compound `NC(=O)c1ccc(C(=O)Nc2cccc(-c3ccc(-c4nc5cc(C(F)(F)F)ccc5[nH]4)cc3)c2)cc1` ?
Output: False

Task: For O=C(Nc1ccc(I)cc1)N1CCc2sccc2C1CN1CCCCC1 (stereo not drawn) then?
Output: False

---

The entries below are paired with their reported Inhibition.
- Tested on: Plasmodium falciparum
- PROTOCOL TEXT: GSK_TCMDC: Inhibition of Plasmodium falciparum Dd2 in whole red blood cells, using parasite LDH activity as an index of growth. Test compounds present at 2uM
- Format: functional
Give just the number in %; leave the unit off.

// below: answered compounds
{"columns": ["COMPOUND", "MEASUREMENT TARGET", "READING"],
 "data": [
  ["Oc1cc(NC[C@H]2CCC[C@@H]2NCc2cc(Br)cc(Br)c2)nc2ccccc12", "Plasmodium falciparum", 45],
  ["NCC(NC(=O)c1ccc(-c2c[nH]c3ncccc23)s1)c1ccccc1.O=CO (stereo not given)", "Plasmodium falciparum", 87],
  ["COc1ccc2nc3cc(Cl)ccc3c(NCCO)c2c1.Cl", "Plasmodium falciparum", 93],
  ["Br.Fc1ccc(C2N=C(SCCSC3=NC(c4ccc(F)cc4)C(c4ccc(F)cc4)N3)NC2c2ccc(F)cc2)cc1 (stereo not given)", "Plasmodium falciparum", 69]
]}

Task: Which Inhibition value belongs to Cc1ccccc1C1CCN(C2CCC(NC(=O)/C=C/c3cc(F)ccc3F)CC2)CC1 (stereo not given) ?
Output: 36

---

Below, each of the compounds is paired with its reported Inhibition value.
- Tested on: HepG2
- PROTOCOL TEXT: GSK_TCMDC: Percent inhibition of human HepG2 cell line. Test compounds present at 10uM.
- Type: functional
Write the value in % as a bare number.

{"columns": ["COMPOUND", "READING"],
 "data": [
  ["COc1ccc2nccc([C@@H](O)CN3CCC(NCc4ccc(OC)c(NC=O)c4)CC3)c2c1", 0],
  ["Cl.O=C(Nc1ccc(SC(F)(F)F)cc1)Nc1ccnc2ccccc12", 26],
  ["COc1ccc2ncc(F)c([C@@H](O)CN3CCC(NCc4cc5c(cn4)OCCO5)CC3)c2c1.Cl", 0],
  ["CC1(C)N=C(N)N=C(N)N1c1cc(Cl)c(Cl)c(Cl)c1.CCS(=O)(=O)O", 68]
]}

// next entry
Task: Look up Inhibition: O=C(NC1CCCCN(Cc2ccccc2O)C1)c1ccc(-c2ccccc2)cc1.O=C(O)C(F)(F)F (stereo not given)
Output: 21

---

- Tested on: Plasmodium falciparum
- PROTOCOL TEXT: GSK_TCMDC: Inhibition of Plasmodium falciparum Dd2 in whole red blood cells, using parasite LDH activity as an index of growth. Test compounds present at 2uM
- Assay type: functional
Returns one of satisfied or not satisfied; satisfied when Inhibition is >= 90%.

{"columns": ["COMPOUND", "QUALITATIVE LABEL"],
 "data": [
  ["CCn1cc2c3c(cc(C(=O)N[C@@H](Cc4ccccc4)[C@H](O)CNCc4cccc(OC)c4)cc31)N(C)S(=O)(=O)CC2", "satisfied"]
]}

Continue with the next compound.
Task: Item `O=c1sn(-c2csc3ccccc23)c2ccccc12` with Inhibition of 90% or above?
Output: not satisfied

---

- Tested on: Plasmodium falciparum
- PROTOCOL TEXT: GSK_TCMDC: Inhibition of Plasmodium falciparum Dd2 in whole red blood cells, using parasite LDH activity as an index of growth. Test compounds present at 2uM
- Type: functional
Collected Inhibition values appear next to each entry.
Give just the numeric value; % need not be written.

# example entries with known answers
{"columns": ["COMPOUND", "READOUT UNITS", "Inhibition"],
 "data": [
  ["COc1ccc(-n2ccnc2SCC(=O)Nc2cc(C(F)(F)F)ccc2Cl)c(OC)c1", "%", 76],
  ["COc1cccc(C=CC(=O)N(CCN)Cc2ccccc2)c1.O=C(O)C(=O)O", "%", 0]
]}

Task: Which Inhibition reading was recorded for the compound `COc1cc2c(cc1NC(=O)CN1CCN(C(=O)c3ccco3)CC1)oc1ccccc12` ?
Output: 96

Task: Follow-up item: CCCCCN1CCC(NS(=O)(=O)c2cccc(C(=O)Nc3ccc(C(F)(F)F)cc3)c2)C1.O=C(O)C(F)(F)F (centres undefined)
Output: 5

Task: Another compound: `CC(C)(C(=O)Nc1ccc(N2CCC3(CCCN(CC4CC4)C3)CC2)c(Cl)c1)c1cccc(C(F)(F)F)c1`
Output: 0

Task: Consider next the compound `COc1ccc2nc(-c3cc(-c4ccc(NC(=O)CN5CCOCC5)cc4)cnc3N)[nH]c2c1` in the same way.
Output: 72

Task: # repeat for `CCN1CCN(Cc2c(O)ccc3c(=O)c(Oc4cc(C)cc(C)c4)c(C(F)(F)F)oc23)CC1`
Output: 90

---

- System: HepG2
- PROTOCOL TEXT: GSK_TCMDC: Percent inhibition of human HepG2 cell line. Test compounds present at 10uM.
- Type: functional
READOUT LABEL: Inhibition
Record the result as number plus unit.

{"columns": ["COMPOUND", "READING"],
 "data": [
  ["Cc1ccc(CNC(=O)[C@H](Cc2ccccc2)Nc2ccnc(NCC3CCCCC3)n2)cc1.O=C(O)C(F)(F)F", "84%"],
  ["COc1ccc(CC(=O)NC(CCN2CCC3(CC2)CN(S(C)(=O)=O)c2ccccc23)c2ccc(Cl)c(Cl)c2)cc1OC (centres undefined)", "10%"],
  ["Cc1[nH]c(C)c(-c2ccc(-c3ccccc3F)nc2)c(=O)c1Br", "2%"]
]}

Task: What value of Inhibition has been recorded for this entry: `Cl.O=S(=O)(c1cccc(F)c1)c1ccc(Nc2ncnc3cc(Br)sc23)cc1Cl`
Output: 20%

Task: And the next one, `COc1cc(C2=NN(S(=O)(=O)c3c(Cl)cc(Cl)cc3Cl)CCCC2)ccc1Cl` ?
Output: 3%

Task: Further, for `CC(Cl)=CCc1c(C)nc2c(ccc3ccccc32)c1O` ?
Output: 24%

Task: Now the compound CC(C)(C)C(=O)Oc1ccc(CC2NCCc3cc(OC(=O)C(C)(C)C)c(OC(=O)C(C)(C)C)cc32)cc1OC(=O)C(C)(C)C (centres undefined)
Output: 3%

Task: // next record COc1ccccc1C1CCN(C2CCC(NC(=O)/C=C/c3cc(F)cc(C(F)(F)F)c3)CC2)CC1 (centres undefined)
Output: 92%

Task: // next record `CC(C)CC(=O)NC1CCN(Cc2c(-c3cccs3)nc3ccccc3c2C(=O)N[C@@H](C)C2CCCCC2)CC1`
Output: 0%
